The measured values listed here are drawn from ChEMBL document CHEMBL4732027.

target: UniProtKB Q07343
protocol.text: Inhibition of recombinant human PDE-4B expressed in Escherichia coli at 20 uM using cAMP as substrate incubated for 60 mins by PDE4 assay kit method relative to control
readout: inhibition (%)

[[record]]
compound = "COc1ccc2[nH]cc(C3CC(C)=NN(C)C3=O)c2c1 (stereo not drawn)"
readout = "inhibition"
reported_value = 13.4

[[record]]
compound = "CC1=NNC(=O)C(c2c[nH]c3ccc([N+](=O)[O-])cc23)C1 (stereo not drawn)"
readout = "inhibition"
reported_value = 19.5

[[record]]
compound = "Cc1cc(-c2c[nH]c3ccc(F)cc23)c(=O)[nH]n1"
readout = "inhibition"
reported_value = 23.6


P. CC1=NNC(=O)C(c2c[nH]c3ccc(Br)cc23)C1 (stereo not drawn)
Q. Cc1cc(-c2c[nH]c3ccccc23)c(=O)[nH]n1
Task: Smaller inhibition value? Options are P and Q Output the label that corresponds to your choice.
Result: P
(P: 9.8%, Q: 45.6%)

---

target: 3',5'-cyclic-AMP phosphodiesterase 4B (Homo sapiens)
protocol.text: Inhibition of recombinant human PDE-4B expressed in Escherichia coli at 20 uM using cAMP as substrate incubated for 60 mins by PDE4 assay kit method relative to control
readout: inhibition (%)

[[record]]
molecule = "O=C(Nc1c(Cl)cncc1Cl)c1ccc(OC(F)F)c(OCC2CC2)c1 [ROFLUMILAST]"
reported_value = 74.6


A. Cc1cc(-c2c[nH]c3ccc(I)cc23)c(=O)[nH]n1
B. CC1=NN(Cc2ccccc2)C(=O)C(c2c[nH]c3ccccc23)C1 (stereo not drawn)
C. Cc1cc(-c2c[nH]c3ccc(I)cc23)c(=O)n(Cc2ccccc2)n1
Task: Please order the records by their reported inhibition, lowest number first. # format: label list in the order the request specifies
Result: A, C, B
(A: 5.9%, C: 8.9%, B: 17.7%)

---

target: UniProt Q07343
protocol.text: Inhibition of recombinant human PDE-4B expressed in Escherichia coli at 20 uM using cAMP as substrate incubated for 60 mins by PDE4 assay kit method relative to control
readout: inhibition (%)

Example results:
[[record]]
compound = "COc1ccc2[nH]cc(-c3cc(C)n[nH]c3=O)c2c1"
reported_value = 63.9

[[record]]
compound = "Cc1cc(-c2c[nH]c3ccccc23)c(=O)n(Cc2ccccc2)n1"
reported_value = 30.1

[[record]]
compound = "CC1=NN(C)C(=O)C(c2c[nH]c3ccccc23)C1 (centres undefined)"
reported_value = 8.7

[[record]]
compound = "Cc1cc(-c2c[nH]c3ccc(F)cc23)c(=O)n(Cc2ccccc2)n1"
reported_value = 17.6

[[record]]
compound = "CC1=NN(Cc2ccccc2)C(=O)C(c2c[nH]c3ccc(Br)cc23)C1 (centres undefined)"
reported_value = 8.7

[[record]]
compound = "COc1ccc2[nH]cc(C3CC(C)=NNC3=O)c2c1 (centres undefined)"
reported_value = 37.5


A. CC1=NN(Cc2ccccc2)C(=O)C(c2c[nH]c3ccc(F)cc23)C1 (centres undefined)
B. CC1=NN(Cc2ccccc2)C(=O)C(c2c[nH]c3ccc(I)cc23)C1 (centres undefined)
C. COc1ccc2[nH]cc(C3CC(C)=NN(Cc4ccccc4)C3=O)c2c1 (centres undefined)
D. Cc1cc(-c2c[nH]c3ccccc23)c(=O)n(C)n1
E. COc1ccc2[nH]cc(-c3cc(C)nn(Cc4ccccc4)c3=O)c2c1
Task: Sequence the entries by inhibition, beginning with the highest number. # format: label list in the order the request specifies
Result: E, C, D, A, B
(E: 49.1%, C: 28.9%, D: 15.3%, A: 9.4%, B: 4.5%)

---

target: 3',5'-cyclic-AMP phosphodiesterase 4B (Homo sapiens, UniProt Q07343)
Sequence (Q07343 whole entry): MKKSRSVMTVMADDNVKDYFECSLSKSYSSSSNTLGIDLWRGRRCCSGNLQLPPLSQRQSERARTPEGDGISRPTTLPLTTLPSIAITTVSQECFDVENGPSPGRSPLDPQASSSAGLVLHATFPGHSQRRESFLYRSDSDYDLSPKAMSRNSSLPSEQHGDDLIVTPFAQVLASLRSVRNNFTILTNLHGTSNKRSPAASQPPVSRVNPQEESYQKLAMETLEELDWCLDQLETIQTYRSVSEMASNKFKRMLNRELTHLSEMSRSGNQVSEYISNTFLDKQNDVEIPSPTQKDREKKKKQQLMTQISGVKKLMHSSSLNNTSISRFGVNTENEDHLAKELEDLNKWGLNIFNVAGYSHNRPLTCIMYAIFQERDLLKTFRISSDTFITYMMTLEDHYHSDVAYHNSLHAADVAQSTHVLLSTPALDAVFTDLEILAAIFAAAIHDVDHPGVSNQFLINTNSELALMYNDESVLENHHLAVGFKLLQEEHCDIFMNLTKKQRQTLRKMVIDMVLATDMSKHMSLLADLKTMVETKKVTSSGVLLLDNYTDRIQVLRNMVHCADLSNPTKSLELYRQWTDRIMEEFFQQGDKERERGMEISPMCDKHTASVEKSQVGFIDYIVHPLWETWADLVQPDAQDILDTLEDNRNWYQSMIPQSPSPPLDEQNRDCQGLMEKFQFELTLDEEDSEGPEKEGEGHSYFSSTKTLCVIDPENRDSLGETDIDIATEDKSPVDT
protocol.text: Inhibition of recombinant human PDE-4B expressed in Escherichia coli at 20 uM using cAMP as substrate incubated for 60 mins by PDE4 assay kit method relative to control
readout: inhibition (%)

[[record]]
compound = "Cc1cc(-c2c[nH]c3ccc(Br)cc23)c(=O)[nH]n1"
unit_annotation = "%"
reported_value = 16.8


A. CC1=NNC(=O)C(c2c[nH]c3ccc(F)cc23)C1 (stereo not drawn)
B. COc1ccc2[nH]cc(-c3cc(C)nn(C)c3=O)c2c1
Task: Lab notebook, comparison: A versus B , higher inhibition goes to which? Output the label that corresponds to your choice.
Result: B
